- target_under_test: PARP1 L713F-nLuc biosensor (HCT116) (UniProt P09874)
- Sequence (P09874 whole entry L713F, looked up): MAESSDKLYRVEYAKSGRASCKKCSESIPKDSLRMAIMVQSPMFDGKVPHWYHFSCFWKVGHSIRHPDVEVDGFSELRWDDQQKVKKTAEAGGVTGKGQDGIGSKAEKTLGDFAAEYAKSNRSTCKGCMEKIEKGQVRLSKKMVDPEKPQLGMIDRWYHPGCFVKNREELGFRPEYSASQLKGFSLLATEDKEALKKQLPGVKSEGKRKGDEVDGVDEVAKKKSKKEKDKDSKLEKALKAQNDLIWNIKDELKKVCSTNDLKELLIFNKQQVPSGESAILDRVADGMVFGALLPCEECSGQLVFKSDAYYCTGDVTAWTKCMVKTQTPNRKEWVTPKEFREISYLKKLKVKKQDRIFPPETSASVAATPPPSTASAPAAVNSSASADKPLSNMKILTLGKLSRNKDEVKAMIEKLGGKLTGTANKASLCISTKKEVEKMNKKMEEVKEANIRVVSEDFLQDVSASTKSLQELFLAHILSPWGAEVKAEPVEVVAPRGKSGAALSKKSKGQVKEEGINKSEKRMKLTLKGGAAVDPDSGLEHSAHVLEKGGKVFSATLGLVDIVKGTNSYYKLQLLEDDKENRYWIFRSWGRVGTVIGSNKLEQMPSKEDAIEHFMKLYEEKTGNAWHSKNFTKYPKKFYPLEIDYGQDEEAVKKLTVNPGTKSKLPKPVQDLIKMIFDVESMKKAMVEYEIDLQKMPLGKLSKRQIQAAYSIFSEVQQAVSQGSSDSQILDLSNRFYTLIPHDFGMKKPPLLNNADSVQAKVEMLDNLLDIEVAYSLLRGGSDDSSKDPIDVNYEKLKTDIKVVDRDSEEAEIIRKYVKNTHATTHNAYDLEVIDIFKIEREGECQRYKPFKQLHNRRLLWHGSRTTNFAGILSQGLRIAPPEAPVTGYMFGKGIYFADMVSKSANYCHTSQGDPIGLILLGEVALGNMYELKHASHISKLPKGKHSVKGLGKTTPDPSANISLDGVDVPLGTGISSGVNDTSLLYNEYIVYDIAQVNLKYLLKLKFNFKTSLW
- test_summary: PARP1 L713F-nLuc/akaLuc ratio relative to DMSO control (biosensor stabilization) (fold change); higher = more PARP1 biosensor stabilization (target engagement / stabilizer), active = hit call of the paper;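 active = log2 fold change beyond 2 SD from the library mean after excluding viability outliers; inactive = within 2 SD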
- setup_conditions: stock concentration (mM; final µM = stock mM x 1): 10; 24 h
Structures can show the parent of a compound that is named as a salt.
Bench note: report the call from YES for active, NO for inactive

Worked set:
- compound: "CN(C)CCCNC(=O)c1ccc(-c2cc(O)c3ncccc3c2)cc1"
  group_label: "NO"
- compound: "CCCCCCCCCCCCC/C=C/[C@@H](O)[C@@H](N)CO"
  group_label: "NO"
- compound: "C[C@H](Nc1ncnc2nc[nH]c12)c1cc2cccc(Cl)c2c(=O)n1-c1ccccc1"
  group_label: "NO"

In: Kindly provide the recorded test outcome for the following compound: O=C1CN2Cc3c(ccc(Cl)c3Cl)N=C2N1 [Anagrelide HCl]
Out: NO

In: Kindly provide the recorded test outcome for the following compound: NC(=O)c1cccc(-c2cccc(OC(=O)NC3CCCCC3)c2)c1
Out: NO

In: Kindly provide the recorded test outcome for the following compound: CN(C)C(=O)c1ccc(S(=O)(=O)c2ccc(NC(=O)[C@@](C)(O)C(F)(F)F)c(Cl)c2)cc1
Out: NO

In: Kindly provide the recorded test outcome for the following compound: CC(=O)N[C@@H](CCCCN)C(=O)Nc1ccc2c(C)cc(=O)oc2c1
Out: NO

In: Kindly provide the recorded test outcome for the following compound: CN(C)C[C@@H]1CCn2cc(c3ccccc32)C2=C(C(=O)NC2=O)c2cn(c3ccccc23)CCO1 [Ruboxistaurin (hydrochloride)]
Out: NO

In: Kindly provide the recorded test outcome for the following compound: O=C(Nc1ccc2c(O)cc(S(=O)(=O)O)cc2c1)Nc1ccc2c(O)cc(S(=O)(=O)O)cc2c1 [AMI-1 (free acid)]
Out: NO

In: Kindly provide the recorded test outcome for the following compound: COc1ccc(NC(=O)c2ccc(NC3=C(C)C(=O)CC3)c(Cl)c2)cc1
Out: NO

In: Kindly provide the recorded test outcome for the following compound: COc1ccc2c(c1)c(C(=O)Nc1cc(C(=O)OC(C)(C)C)ccc1F)cn2C(C)=O
Out: NO

In: Kindly provide the recorded test outcome for the following compound: CC/C(=C(\c1ccc(O)cc1)c1ccc(OCCN(C)C)cc1)c1ccccc1 [4-Hydroxytamoxifen]
Out: NO

In: Kindly provide the recorded test outcome for the following compound: O=C1C(Cl)=C(NCCN2CCOCC2)C(=O)c2ncccc21
Out: NO

In: Kindly provide the recorded test outcome for the following compound: Cn1ncc(Cl)c1-c1cc(C(=O)N[C@H](CN)Cc2cccc(F)c2)sc1Cl [Afuresertib (hydrochloride)]
Out: NO

In: Kindly provide the recorded test outcome for the following compound: O=c1[nH]ccc2c(O)cccc12
Out: YES

In: Kindly provide the recorded test outcome for the following compound: O=C(O)CNC(=O)c1ncc(-c2cccc(Cl)c2)cc1O
Out: NO

In: Kindly provide the recorded test outcome for the following compound: NC(=O)N1CCC(CC(=O)N2CCC([C@H]3c4ncc(Br)cc4CCc4cc(Cl)cc(Br)c43)CC2)CC1
Out: NO

In: Kindly provide the recorded test outcome for the following compound: CCN(CCN(C)C)C(=O)CNCc1cc(C(N)=O)ccn1 [KDOAM-25 (citrate)]
Out: NO
